Molecular target: hERG (Kv11.1) potassium channel (Homo sapiens, UniProt Q12809)
Construct: host or cells: HEK293
Sequence (Q12809 whole entry): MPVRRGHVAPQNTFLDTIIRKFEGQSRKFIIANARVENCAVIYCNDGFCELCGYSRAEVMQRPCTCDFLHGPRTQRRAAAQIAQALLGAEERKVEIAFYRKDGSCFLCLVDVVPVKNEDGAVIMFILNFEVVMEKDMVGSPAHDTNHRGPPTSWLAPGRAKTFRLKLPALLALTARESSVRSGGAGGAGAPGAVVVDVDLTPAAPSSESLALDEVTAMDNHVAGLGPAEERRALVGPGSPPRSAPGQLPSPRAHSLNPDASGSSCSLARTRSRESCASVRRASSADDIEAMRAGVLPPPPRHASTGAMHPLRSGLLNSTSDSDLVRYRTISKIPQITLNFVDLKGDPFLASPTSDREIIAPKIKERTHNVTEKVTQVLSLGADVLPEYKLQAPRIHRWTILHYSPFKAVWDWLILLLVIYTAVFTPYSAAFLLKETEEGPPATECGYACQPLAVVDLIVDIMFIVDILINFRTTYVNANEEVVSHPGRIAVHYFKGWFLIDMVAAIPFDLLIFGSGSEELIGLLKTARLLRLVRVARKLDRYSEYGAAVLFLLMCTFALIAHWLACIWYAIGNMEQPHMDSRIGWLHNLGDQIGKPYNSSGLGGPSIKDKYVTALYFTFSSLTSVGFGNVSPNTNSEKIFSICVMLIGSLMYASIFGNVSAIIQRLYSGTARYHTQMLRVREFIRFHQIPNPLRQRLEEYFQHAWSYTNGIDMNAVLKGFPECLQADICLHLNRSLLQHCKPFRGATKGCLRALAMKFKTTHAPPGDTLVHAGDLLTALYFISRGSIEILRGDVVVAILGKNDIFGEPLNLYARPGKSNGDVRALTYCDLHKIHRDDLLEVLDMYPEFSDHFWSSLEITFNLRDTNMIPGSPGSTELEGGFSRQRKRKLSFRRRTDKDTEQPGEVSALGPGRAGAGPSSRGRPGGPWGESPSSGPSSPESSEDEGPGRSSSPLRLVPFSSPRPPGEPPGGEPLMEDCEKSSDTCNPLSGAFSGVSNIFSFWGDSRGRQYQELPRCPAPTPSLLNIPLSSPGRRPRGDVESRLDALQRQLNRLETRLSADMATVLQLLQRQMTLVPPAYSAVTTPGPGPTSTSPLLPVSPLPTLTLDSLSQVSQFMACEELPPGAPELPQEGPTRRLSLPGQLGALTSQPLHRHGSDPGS
Test: Automated planar patch-clamp, hERG current in HEK cells
Format: cell-based
Conditions: human, HEK293 cells stably expressing hERG (Kv11.1), pH 7.4; printed in picture of Fig. 2b; read-out: Effect on hERG: EC50
quantity: IC50 at 3 min (nM)
Express your answer in nM, writing the number without its unit.

Prompt: Can you share its IC50 at 3 min? I mean this compound: CC(N)COc1c(I)cc(C#N)cc1I.Cl (stereo not shown)
Response: 342

====

Target: GIRK1 (Kir3.1/3.4) potassium channel (Homo sapiens, UniProt P48544+P48549)
Sequence (P48549 whole entry): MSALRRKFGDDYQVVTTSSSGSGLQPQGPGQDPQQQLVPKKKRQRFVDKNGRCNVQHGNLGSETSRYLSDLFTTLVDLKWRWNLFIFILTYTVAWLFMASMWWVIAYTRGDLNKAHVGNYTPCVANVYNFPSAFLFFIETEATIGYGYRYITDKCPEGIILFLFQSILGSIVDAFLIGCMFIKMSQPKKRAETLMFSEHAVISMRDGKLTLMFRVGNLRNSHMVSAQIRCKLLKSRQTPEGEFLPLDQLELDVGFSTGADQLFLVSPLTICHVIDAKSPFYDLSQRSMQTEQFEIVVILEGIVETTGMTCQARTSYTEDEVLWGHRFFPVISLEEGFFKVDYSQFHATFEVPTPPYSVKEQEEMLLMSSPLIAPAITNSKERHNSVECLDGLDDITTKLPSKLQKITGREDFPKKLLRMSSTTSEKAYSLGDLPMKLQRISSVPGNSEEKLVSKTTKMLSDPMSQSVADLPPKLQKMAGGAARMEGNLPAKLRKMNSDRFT
Sequence (P48544 whole entry): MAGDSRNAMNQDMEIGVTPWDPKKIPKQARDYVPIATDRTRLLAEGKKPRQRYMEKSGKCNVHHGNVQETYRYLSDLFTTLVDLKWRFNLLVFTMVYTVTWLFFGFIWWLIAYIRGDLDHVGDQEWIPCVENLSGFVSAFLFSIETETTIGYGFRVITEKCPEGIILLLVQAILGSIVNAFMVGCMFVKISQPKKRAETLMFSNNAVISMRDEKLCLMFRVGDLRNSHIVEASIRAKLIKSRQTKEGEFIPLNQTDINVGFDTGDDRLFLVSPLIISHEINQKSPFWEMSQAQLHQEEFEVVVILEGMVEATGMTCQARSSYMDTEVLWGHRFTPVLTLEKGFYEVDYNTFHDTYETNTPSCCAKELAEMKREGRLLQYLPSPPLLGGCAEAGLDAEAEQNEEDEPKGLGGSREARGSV
Experiment: Automated planar patch-clamp, GIRK current in HEK cells
Settings: HEK cells (abstract)
quantity: IC50 (nM)
Express your answer in nM, writing the number without its unit.

Prompt: Param readout = IC50; param system = GIRK1 (Kir3.1/3.4) potassium channel (Homo sapiens, UniProt P48544+P48549); param query = CC(N)COc1c(I)cc(C#N)cc1I.Cl (stereo not shown) ; response: value
Response: 529
